- Protocol Notes: Viability qHTS for spleen associated tyrosine kinase inhibitor (SYKi) naive MV4-11 cells (AID 1963823); note: nearly all actives have a fitted effect of over 40% in size; note: potency is the fitted concentration of half-maximal effect
- Assay Setup: MV4-11 AML viability, CellTiter-Glo luminescence, 72 h; series mostly up to 45 µM
Results filed as inconclusive are left out. Activity calls are given as the source filed them. Calls come from the whole dose curve; as a rule, active = well fitted cell-killing curve with a large enough effect; inconclusive = small, poorly fitted or top-dose-only effect, or effect the other way; inactive = no such curve, though single readings can be large or run the other way.
Measurement Type: Potency

[[record]]
compound = "Cc1cc2c(c(=O)o1)C=C1CC[C@H]([C@H](C)Cn3cnc(=N)c4[nH]cnc43)C[C@@H]1O2"
measurement_type = "Potency"
reading = "inactive"

[[record]]
compound = "CC1=C2C(=O)C=C(CO)C2C2OC(=O)C(CS(=O)(=O)O)C2C(OC(=O)Cc2ccc(O)cc2)C1 (stereo unspecified)"
measurement_type = "Potency"
reading = "inactive"

[[record]]
compound = "CC(=O)N[C@H]1CSSC[C@@H](C(N)=O)NC(=O)[C@H](C(C)C)NC(=O)[C@H](C)NC(=O)[C@H](Cc2cnc[nH]2)NC1=O"
measurement_type = "Potency"
reading = "inactive"

[[record]]
compound = "COC(=O)C1=CO[C@@H](O[C@@H]2O[C@H](CO)[C@@H](O)[C@H](O)[C@H]2O)[C@H]2[C@@H]1[C@H](O)C[C@]2(C)O"
measurement_type = "Potency"
reading = "inactive"

[[record]]
compound = "COc1cc2ncc(-c3ccccc3)nc2cc1OC"
measurement_type = "Potency"
reading = "3.66 µM (active)"

[[record]]
compound = "Nc1ccc(-c2ccnc(NCCCNC(=O)c3c(Cl)cccc3Cl)n2)cc1"
measurement_type = "Potency"
reading = "1.3 µM (active)"

[[record]]
compound = "CC(C)=CCCC1(C)/C=C/C(OC(=O)C=C(C)C)C(C)(O)/C=C/C(=O)/C(CO)=C\\C1 (stereo unspecified)"
measurement_type = "Potency"
reading = "1.59 µM (active)"

[[record]]
compound = "CN[C@H](CC(C)C)C(=O)N[C@H]1C(=O)N[C@@H](CC(N)=O)C(=O)N[C@H]2C(=O)N[C@H]3C(=O)N[C@H](C(=O)N[C@H](C(=O)O)c4cc(O)cc(O)c4-c4cc3ccc4O)[C@H](O)c3ccc(c(Cl)c3)Oc3cc2cc(c3O[C@@H]2O[C@H](CO)[C@@H](O)[C@H](O)[C@H]2O[C@H]2C[C@](C)(N)[C@H](O)[C@H](C)O2)Oc2ccc(cc2Cl)[C@H]1O"
measurement_type = "Potency"
reading = "inactive"

[[record]]
compound = "Cc1ccc2ccc(Cl)cc2n1"
measurement_type = "Potency"
reading = "inactive"

[[record]]
compound = "C[N+]1(C)CCC(=C(c2ccccc2)c2ccccc2)CC1"
measurement_type = "Potency"
reading = "inactive"

[[record]]
compound = "O=C(O[C@H]1[C@@H]2C[C@@H]3OC[C@](O)([C@@H]1Cl)[C@H]2C(O[C@@H]1O[C@H](CO)[C@@H](O)[C@H](O)[C@H]1O)O3)c1ccc(O)c(O)c1 (stereo partly specified)"
measurement_type = "Potency"
reading = "inactive"

[[record]]
compound = "C=CC(=O)Nc1cccc(C)c1Nc1ncc2cc(-c3c(Cl)c(OC)cc(OC)c3Cl)ccc2n1"
measurement_type = "Potency"
reading = "1.03 µM (active)"

[[record]]
compound = "Cc1ccc2nc(NC(=O)CSc3nc4c(c(=O)n3-c3ccccc3)SCC4)sc2c1"
measurement_type = "Potency"
reading = "inactive"

[[record]]
compound = "C[C@@H]1CN(Cc2ncccn2)C[C@H]1c1nc2c(cnn2C2CCOCC2)c(=O)[nH]1"
measurement_type = "Potency"
reading = "inactive"

[[record]]
compound = "COC(=O)Cn1nc(-c2cccc(OC)c2)c2ccccc21"
measurement_type = "Potency"
reading = "inactive"

[[record]]
compound = "Nc1ccc(-n2nc(C(F)(F)F)cc2C(F)(F)F)cc1"
measurement_type = "Potency"
reading = "inactive"

